molecular target: Cell division protein FtsZ (Staphylococcus aureus, UniProt P0A031, G196A); experiment: Binding affinity to Staphylococcus aureus FtsZ G196A mutant expressed in Escherichia coli BL21 (DE3) at 25 degC by fluorescence anisotropy assay
measuredParameter: Kd (µM)
Please reply with the bare figure in µM and do not write the unit itself.

Query (compound): CC(C)(C)c1ccc(-c2cccc(CNC(=N)N)c2)cc1 ; field requested: Kd
5

* * *

tested on: Staphylococcus aureus; assay: Antimicrobial activity against methicillin-resistant Staphylococcus aureus Mu3 incubated for 24 hrs by broth microdilution method; type: functional; settings: Mu3, 24 h
measuredParameter: MIC (mg/L)
Numbers only here, please. The scale is mg/L.

A selection of reference data follows.
>  <smilesStructure>
CC(C)(C)c1ccc(-c2cccc(CNC(=N)N)c2)cc1

>  <unitString>
mg/L

>  <MIC>
1

$$$$
>  <smilesStructure>
CC(C)(C)c1ccc(-c2cc(CNC(=N)N)ncn2)cc1

>  <unitString>
mg/L

>  <MIC>
32

$$$$

Next molecule, MIC to be filled in.
// returns reported MIC for input CC(C)(C)c1ccc(-c2ccnc(CNC(=N)N)c2)cc1
8

* * *

target: Cell division protein FtsZ (Escherichia coli K-12, UniProt P0A9A6); assay: Binding affinity to Escherichia coli FtsZ at 25 degC by fluorescence anisotropy assay; settings: read-out: Kd
Sequence (P0A9A6 whole entry): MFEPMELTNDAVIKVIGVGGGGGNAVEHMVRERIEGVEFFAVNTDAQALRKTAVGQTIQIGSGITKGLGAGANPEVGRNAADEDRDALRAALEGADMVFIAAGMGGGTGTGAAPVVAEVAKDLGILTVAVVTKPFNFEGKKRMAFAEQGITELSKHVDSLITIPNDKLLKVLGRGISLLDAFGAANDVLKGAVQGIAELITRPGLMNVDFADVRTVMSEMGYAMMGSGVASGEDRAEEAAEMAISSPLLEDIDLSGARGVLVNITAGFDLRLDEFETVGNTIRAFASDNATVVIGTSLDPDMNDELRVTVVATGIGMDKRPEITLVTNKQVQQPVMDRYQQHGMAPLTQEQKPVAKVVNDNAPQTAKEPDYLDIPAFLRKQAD
measuredParameter: Kd (µM)
State the answer as a number, implicitly in µM.

Suppose we examine the compound CC(C)(C)c1ccc(-c2cccc(CNC(=N)N)c2)cc1 ; what Kd value has been reported?
3.8

* * *

tested on: Enterococcus faecalis; assay: microbe, parasite or virus in culture; assay type: functional; settings: ATCC 51575, 24 h
Overview of recorded MIC for various compounds
Give just the numeric value; µg/mL need not be written.

>  <compound>
CC(C)(C)c1ccc(-c2cccc(CNC(=N)N)c2)cc1

>  <unitString>
µg/mL

>  <number>
4

$$$$
>  <compound>
Cc1onc(-c2ccccc2Cl)c1C(=O)N[C@@H]1C(=O)N2[C@@H]1SC(C)(C)[C@@H]2C(=O)[O-].[Na+] [OXACILLIN SODIUM SALT]

>  <unitString>
µg/mL

>  <number>
64

$$$$

// moving on: another record for MIC
I'm curious: which MIC was measured for CC(C)(C)c1ccc(-c2ccnc(CNC(=N)N)c2)cc1 tested on Enterococcus faecalis?
64

* * *

MIC listing for selected compounds.
tested on: Staphylococcus aureus; assay: Antimicrobial activity against methicillin-resistant Staphylococcus aureus Mu3 incubated for 24 hrs by broth microdilution method; format: functional; details: Mu3, 24 h

Could you tell me which MIC is on file for CC[C@H]1OC(=O)[C@H](C)[C@@H](O[C@H]2C[C@@](C)(OC)[C@@H](O)[C@H](C)O2)[C@H](C)[C@@H](O[C@@H]2O[C@H](C)C[C@H](N(C)C)[C@H]2O)[C@](C)(O)C[C@@H](C)C(=O)[C@H](C)[C@@H](O)[C@]1(C)O [ERYTHROMYCIN] ?
> 64 µg/mL

# input compound: CCC[C@@H]1C[C@@H](C(=O)N[C@@H]([C@H]2O[C@H](SC)[C@H](O)[C@@H](O)[C@H]2O)[C@H](C)Cl)N(C)C1.Cl [CLINDAMYCIN HYDROCHLORIDE] ; wanted: its MIC
> 64 µg/mL
